Tested on: PPARg DBDmut IVT, anti-PPARg (DBD mutation: PPARg1 K132A/R137A, NR concentration 270 nM)
test-name: PBM binding z-score (relative to random genomic background probes); higher = stronger binding; sequences stand for … in GC…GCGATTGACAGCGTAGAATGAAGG
experimental-endpoint: PBM binding z-score
A bare number is all that is needed in reply.

Below: 2 sequences and their reported PBM binding z-score.
{"columns": ["sequence-entry", "PBM binding z-score"],
 "data": [
  ["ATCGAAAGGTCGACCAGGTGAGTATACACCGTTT", 0.642],
  ["CGTCCAAGGTCAAAGGTCATTGAAGAGATGACGG", 0.832]
]}

Ask | Give the value of PBM binding z-score reported for the following: TAGCCTAGGTCATTCAGGGGCCAGCATAGAAAGC
Reply | 0.0516

Ask | Give the value of PBM binding z-score reported for the following: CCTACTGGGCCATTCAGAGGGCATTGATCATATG
Reply | -0.131

Ask | Give the value of PBM binding z-score reported for the following: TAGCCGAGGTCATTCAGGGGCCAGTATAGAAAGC
Reply | 1.57

Ask | Give the value of PBM binding z-score reported for the following: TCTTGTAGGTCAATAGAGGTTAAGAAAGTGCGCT
Reply | 2.4

Ask | Give the value of PBM binding z-score reported for the following: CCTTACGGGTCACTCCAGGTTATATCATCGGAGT
Reply | -0.354

---

Test system: PPARg:RXRa IVT, anti-PPARg (NR concentration 270 nM, RXRa partner concentration 90 nM)
test-name: PBM binding z-score (relative to random genomic background probes); higher = stronger binding; sequences stand for … in GC…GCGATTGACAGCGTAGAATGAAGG
Reported values of PBM binding z-score for individual entries

{"columns": ["sequence-entry", "PBM binding z-score"],
 "data": [
  ["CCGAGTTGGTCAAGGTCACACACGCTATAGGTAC", 3.09]
]}

Ask | Give the value of PBM binding z-score reported for the following: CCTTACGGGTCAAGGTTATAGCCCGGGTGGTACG
Reply | 3.44

Ask | Give the value of PBM binding z-score reported for the following: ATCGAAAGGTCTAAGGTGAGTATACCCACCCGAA
Reply | 1.2

Ask | Give the value of PBM binding z-score reported for the following: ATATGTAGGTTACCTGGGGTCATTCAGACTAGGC
Reply | 7.26

Ask | Give the value of PBM binding z-score reported for the following: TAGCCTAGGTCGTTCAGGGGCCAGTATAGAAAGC
Reply | 0.847

Ask | Give the value of PBM binding z-score reported for the following: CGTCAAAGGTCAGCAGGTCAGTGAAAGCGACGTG
Reply | 5.73

---

Tested on: PXR homodimer (NR concentration 270 nM)
test-name: PBM binding z-score (relative to random genomic background probes); higher = stronger binding; sequences stand for … in GC…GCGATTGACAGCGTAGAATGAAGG
experimental-endpoint: PBM binding z-score
A bare number is all that is needed in reply.

Below: 3 sequences and their reported PBM binding z-score.
{"columns": ["sequence-entry", "target-under-test", "experimental-endpoint", "number"],
 "data": [
  ["CGAACTAGGTCATTGACAGGACAATGAATAGTAA", "PXR homodimer (NR concentration 270 nM)", "PBM binding z-score", 0.487],
  ["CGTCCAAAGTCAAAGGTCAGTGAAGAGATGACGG", "PXR homodimer (NR concentration 270 nM)", "PBM binding z-score", 0.811],
  ["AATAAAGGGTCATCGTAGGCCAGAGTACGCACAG", "PXR homodimer (NR concentration 270 nM)", "PBM binding z-score", 1.02]
]}

Ask | Give the value of PBM binding z-score reported for the following: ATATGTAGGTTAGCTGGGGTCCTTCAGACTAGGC
Reply | 0.206

Ask | Give the value of PBM binding z-score reported for the following: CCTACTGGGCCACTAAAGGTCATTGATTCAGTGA
Reply | 1.79

Ask | Give the value of PBM binding z-score reported for the following: TAGCCTAGGTCATTCAGGGGCCACTATAGAAAGC
Reply | -0.109

---

Reported values of PBM binding z-score for individual entries
Test system: PPARg:RXRa 90nM:30nM, anti-RXR (NR concentration 90 nM, RXRa partner concentration 30 nM)
test-name: PBM binding z-score (relative to random genomic background probes); higher = stronger binding; sequences stand for … in GC…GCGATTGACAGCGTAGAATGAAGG
A bare number is all that is needed in reply.

{"columns": ["sequence-entry", "target-under-test", "experimental-endpoint", "number"],
 "data": [
  ["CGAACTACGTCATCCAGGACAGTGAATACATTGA", "PPARg:RXRa 90nM:30nM, anti-RXR (NR concentration 90 nM, RXRa partner concentration 30 nM)", "PBM binding z-score", -0.145],
  ["CCTTAGGGGTCACTGACAGGTTATAGCATTTGGA", "PPARg:RXRa 90nM:30nM, anti-RXR (NR concentration 90 nM, RXRa partner concentration 30 nM)", "PBM binding z-score", 7.46],
  ["AATACAGGGTCACGAGGCCAGAGTAGGTACGAAT", "PPARg:RXRa 90nM:30nM, anti-RXR (NR concentration 90 nM, RXRa partner concentration 30 nM)", "PBM binding z-score", 6.65]
]}

Ask | Give the value of PBM binding z-score reported for the following: CGTCCAAGGTCAGCGGGTCAGTGAAAGCGACGTG
Reply | 2.81

Ask | Give the value of PBM binding z-score reported for the following: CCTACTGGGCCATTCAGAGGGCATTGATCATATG
Reply | -0.127

Ask | Give the value of PBM binding z-score reported for the following: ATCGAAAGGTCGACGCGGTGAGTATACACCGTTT
Reply | 1.8

---

System: RARb homodimer (NR concentration 270 nM)
test-name: PBM binding z-score (relative to random genomic background probes); higher = stronger binding; sequences stand for … in GC…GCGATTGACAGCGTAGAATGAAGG
experimental-endpoint: PBM binding z-score
A bare number is all that is needed in reply.

Below: 10 sequences and their reported PBM binding z-score.
{"columns": ["sequence-entry", "number"],
 "data": [
  ["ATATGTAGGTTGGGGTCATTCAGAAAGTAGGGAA", 4.06],
  ["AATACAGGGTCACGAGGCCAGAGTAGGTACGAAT", 4.14],
  ["AATACGGGGTCACTAGGCCAGAGTAGGTACGAAT", 4.41],
  ["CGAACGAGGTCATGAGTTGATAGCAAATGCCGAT", 3.94],
  ["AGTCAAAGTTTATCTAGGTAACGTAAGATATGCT", 0.612],
  ["CAAACAAGGTCAAAGGTCAAAGTCGAGCCAACCA", 5.66],
  ["CCTAGTTGTTCAGGAGGTCACACACCGGATATGA", 4.15],
  ["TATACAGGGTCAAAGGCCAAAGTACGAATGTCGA", 3.7],
  ["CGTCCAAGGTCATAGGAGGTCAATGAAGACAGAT", 5.71],
  ["GCTTACAGGTCAAAGGTTATAGCATGAATAGAAT", 3.69]
]}

Ask | System RARb homodimer (NR concentration 270 nM). Read-out PBM binding z-score. Item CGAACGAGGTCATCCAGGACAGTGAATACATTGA . Report value.
Reply | 4.1

Ask | System RARb homodimer (NR concentration 270 nM). Read-out PBM binding z-score. Item CGTTCAAGGTCAAAGGTCAGTGAAGAGATGACGG . Report value.
Reply | 5.42

---

System: THRa:RXRa (NR concentration 90 nM, RXRa partner concentration 90 nM)
test-name: PBM binding z-score (relative to random genomic background probes); higher = stronger binding; sequences stand for … in GC…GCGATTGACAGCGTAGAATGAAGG
Reported values of PBM binding z-score for individual entries
A bare number is all that is needed in reply.

{"columns": ["sequence-entry", "number"],
 "data": [
  ["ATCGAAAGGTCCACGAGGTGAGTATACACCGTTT", 1.96]
]}

Ask | Give the value of PBM binding z-score reported for the following: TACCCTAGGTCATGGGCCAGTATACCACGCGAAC
Reply | 3.26

Ask | Give the value of PBM binding z-score reported for the following: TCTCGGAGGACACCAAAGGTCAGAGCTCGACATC
Reply | 3.65

Ask | Give the value of PBM binding z-score reported for the following: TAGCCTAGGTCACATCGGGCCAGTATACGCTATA
Reply | 4.5

Ask | Give the value of PBM binding z-score reported for the following: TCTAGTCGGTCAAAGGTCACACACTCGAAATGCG
Reply | 4.13

Ask | Give the value of PBM binding z-score reported for the following: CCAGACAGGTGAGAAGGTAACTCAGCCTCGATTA
Reply | 0.425

Ask | Give the value of PBM binding z-score reported for the following: CCTTAGGGGTCACGAGGTTATAGCACGACGAGCG
Reply | 4.53

Ask | Give the value of PBM binding z-score reported for the following: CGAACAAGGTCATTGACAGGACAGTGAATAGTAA
Reply | 3.96
